Where do these numbers come from? They come from the nanobody polyreactivity screen of Harvey et al. (2022).

experiment: yeast display, Sf9 membrane polyspecificity reagent, FACS + sequencing; frameworks hold sequencing errors
endpoint-label: polyreactivity (PSR sort gate)

Sample records with polyreactivity (PSR sort gate):
{"columns": ["sequence-code", "polyreactivity (PSR sort gate)"],
 "data": [
  ["QVQLVESGGGLVQAGGSLRLSCAASGSTFWYNAMGWYRQAPGTEREFVAAISSRGGNTFYADSVKGRFTISRDNAKNTVYLQMNSLKPEDTAVYYCDARFNRPYDYWGQGTQVTVSS", "low polyreactivity"],
  ["QVQLVESGGCLVQAGGSHRLSCASSGRTFYRKAMGWYRQAPGKERELVAAISSGTSTNYADSVKGRFTISRDYAKNTVYLQMNSLKPEDTAVYYCAKERPRGAPAYYSRFYDYWGQGTQVTVSS", "high polyreactivity"],
  ["QVQLVESGGGLVQAGGSLRLSCAASRSTFNYYTMGWYRQAPGKERELVAAISRGGSTYYADSVKGRFTISRDNAKNTVYLQMNSLKPEDTAVYYCAATVYPRYFRKYDYWGQGTQVTVSS", "high polyreactivity"],
  ["QVQLVESGGGLVQAGGSLRLSCAASGRIFNQYGMGWYRQAPGKERELVAAIRSGDSTNYADSVKGRFTISRDNAKNTVYLQMNSLKPVDTAVYYFNAYLSPKQPLSPPDPTFEGGYWGQGTQVTVSS", "low polyreactivity"],
  ["QVQLVESGGGLVQAGGSLRLSSPASGRTIRSYAMGSYRQAPGKERELVAAINSSGGSTYYADSVKARFTISRDNAKNTVYLQMNSLKPEDTAVYYCNTDYSSTSPWRAANYWGQGTQVTVSS", "high polyreactivity"],
  ["QVQLVESGGGLVQAGGSLRLSCAASGFTFTSYVMGWYRQAPGKEREFVAAITRSAGGTYYADSVKGRFTISRDNAQNTFYLQINSLKPEDTAVYYCAAEYYVPGGGAYRGDYWGQGTQVTGSS", "high polyreactivity"]
]}

Problem: Read the entry `QVQLVESGGGLVQAGGSLRLSCAASGRIFSTNAMGWYRQAPGKERELVATIRTSGGSTYYADSVKGRFTISRDNAKNTVYLQMNSLKPEDTAVYYCAARRFLHYTTYYGTGRYDYWGQGTQVTVSS` and write its reported polyreactivity (PSR sort gate).
Result: low polyreactivity

Problem: Read the entry `QVQLVESGGGLVQAGGSLRLSCAASVLIFEAYAMGWYRQAPAKERELVATINKSGGSTYYADSVKGRFTISRDNAKNTVYLQMNSLKPEDTAVYFCAAFFLLPSPWPSYWCWNGDYWGQRTQVTVSS` and write its reported polyreactivity (PSR sort gate).
Result: low polyreactivity

Problem: Read the entry `QVQLVESGGGLVQAGGSLRLSCAASGRTFPYYAMGWYRQAPGKERELVARIRSDGSTNYADSVKGRFTISRDNAKNTVYLQINSLKPDDTAVYDCAAKPYPSLFFHYGYWGQGTQVTVSS` and write its reported polyreactivity (PSR sort gate).
Result: low polyreactivity

Problem: Read the entry `QVQLQESGGGQVQAGGSLRLSCAASGYISTHYFMGWYRQATGKDREFVAGISNGSITNYADSVKGRFTISRDNARNTVYLQMNSLKPEDTAVYYGAAYEWTYVRFGYWGQGTQVTVSG` and write its reported polyreactivity (PSR sort gate).
Result: high polyreactivity

Problem: Read the entry `QVQLVESGGGLVQAGGSLRLSCAASGRIFRLYAMGWYRQAPGKERELVAAISKSGGSTYYADSVKGRFTISRDNAKNTVYLQMNSLKPEDTAVYYCAADYRTHGGYEGTFDYWGQGTQVTVSS` and write its reported polyreactivity (PSR sort gate).
Result: low polyreactivity
